system: TO-3-N3 (biotin conjugate); experiment: pull-down binding Z-score (relative to library population); higher = stronger binding; settings: RNA library: Library-2
Output: class label from pull-down binding Z-score. Mapping: low interval (below -0.5), middle interval (-0.5 to below -0.2), high interval (-0.2 or more)

chain: GGGGCUGAGGCUGAGUCUUCCUCCC [hsa-mir-6756]
qualitativeLabel: high interval

chain: CUACAAAGCAACCAUGAUCUGUAUUGUCAAGUCCAUGGUAAUGCACAUGUAG
qualitativeLabel: low interval

chain: CUACUAGUUUGUAGUAGUUCGUAGCAG [hsa-mir-3919]
qualitativeLabel: middle interval

chain: CCAUAAGCUGUCUAAAACUUCG [hsa-mir-4513]
qualitativeLabel: middle interval

chain: GGUUGUUUAAUUAGGAACCAACU [hsa-mir-190b]
qualitativeLabel: middle interval

chain: UGCAGAUUCAACUUUGAUUGGUGAUUGUGCA
qualitativeLabel: high interval

chain: UAGGUUGUGUGCUGUCCAGCCUG [hsa-mir-26b]
qualitativeLabel: middle interval

chain: GAGGGGUGUAUACUGCUGCCGUGAACAUGAGCAUGAAAUUGCUUGGUACACGGAACGUUCUGAAAAGAGCUAUGAAUUGCAGACACCUUUU
qualitativeLabel: middle interval

chain: CAAGGAAGAGUCACAGUCUCUUCCUUG [hsa-mir-659]
qualitativeLabel: middle interval

chain: AUGGAGGCUGCUUCUCCUCAGCAGCUGCCAUA [hsa-mir-3651]
qualitativeLabel: high interval

chain: CUGGGAGGUGUGAUCCCGUGCUUCCUGG [hsa-mir-3689b]
qualitativeLabel: low interval

---

tested on: TO-N3 (biotin conjugate); test: pull-down binding Z-score (relative to library population); higher = stronger binding; conditions: RNA library: Library-2
Response key: True means pull-down binding Z-score >= -0.2; False means pull-down binding Z-score < -0.2.

chain: UGUUUUUGCCAUUAAAAAUAAUGGCAUUAAAAGUAAUGGCAAAAACG [hsa-mir-548al]
qualitativeLabel: False

chain: GCAGACGGGCGAUUUUGUUAAAGCCACUUGC
qualitativeLabel: True

chain: GAGGCCAGAGGUGCCC [hsa-mir-4292]
qualitativeLabel: True

chain: AUGGAGAACGCCCCCACCAGUUCCCAC [hsa-mir-6767]
qualitativeLabel: True

chain: AACUUCUUAAGAGUGCUUAUGAAAAUUUUAAUCAGCACGAAGUU
qualitativeLabel: False

chain: AACUUUAAUGUU [SHAPE_invitro_SARS-CoV-2_Motif_263]
qualitativeLabel: True

chain: ACUAAAAUAAAACCUCAUAAUUCACAUGAAGGUAAAACAUUUUAUGUUUUACCUAAUGAUGACACUCUACGUGUUGAGGCUUUUGAGU [DMSMaPseq_invitro_SARS-CoV-2_Multi_18_ComplexLevel_1]
qualitativeLabel: False

chain: UGGGUAGAAUUCGAUCUGUCUAUCCA
qualitativeLabel: False

chain: AGUGUAAAAGUGCCUUUUACAUU [DMSMaPseq_invitro_SARS-CoV-2_Motif_79]
qualitativeLabel: False

chain: AUUUUUCUAAACUGAUAAAU [DMSMaPseq_invitro_SARS-CoV-2_Motif_131]
qualitativeLabel: False

chain: CAGCCCGUGGUGGGG [hsa-mir-3619]
qualitativeLabel: True

chain: CAGCCAUGACCUGACCUUCUGUCUG [hsa-mir-4677]
qualitativeLabel: True

chain: UGGGAUAUUGCCCG [IAV_invivo_PB2_1_Motif_20+IAV_invivo_PB2_1_Motif_20]
qualitativeLabel: True
